Assay: MIC of test compounds against various organisms
Type: cell-based
Conditions: versus all these organisms (10-strain panel); read-out: MIC
Counter-ions that a name gives are not always drawn.
Property Name: MIC

In [3]: df
Out[3]:
                                    molecule      result
 0  COc1ccc2nccc(NC(=O)C3CCN(CC(O)c4ccc5c(c4)NC(=O)CS5)CC3)c2n1 (stereo not drawn) [Example 12]   ≤ 4 µg/mL
 1  COc1ccc2nccc(NC(=O)C3CCN(CCc4ccc5c(c4)OCO5)CC3)c2n1 [Example 2, dioxalate]   ≤ 4 µg/mL
 2  COc1ccc2nccc(NC(=O)C3CCN(CCc4ccc5nsnc5c4)CC3)c2n1 [Example 5, dioxalate]  ≤ 64 µg/mL
 3  COc1ccc2nccc(NC(=O)C3CCN(CC(O)c4ccc5c(c4)OCCO5)CC3)c2n1 (stereo not drawn) [Example 18]   ≤ 4 µg/mL
 4  COc1ccc2nccc(NC(=O)C3CCN(CCc4ccc5c(c4)oc(=O)n5C)CC3)c2n1 [Example 6, dioxalate]  ≤ 64 µg/mL
 5  COc1ccc2nccc(NC(=O)C3CCN(CC(=O)c4ccc5c(c4)OCCO5)CC3)c2n1 [Example 14, oxalate]  ≤ 16 µg/mL
 6  COc1ccc2nccc(NC(=O)C3CCN(CCc4ccc5c(c4)NC(=O)CS5)CC3)c2n1 [Example 1]   ≤ 4 µg/mL
 7  COc1ccc2nccc(NC(=O)C3CCN(CCc4cnc5ccccc5n4)CC3)c2n1 [Example 9]  ≤ 64 µg/mL
 8  COc1ccc2nccc(NC(=O)C3CCN(CCc4ccc5c(c4)NC(=O)CO5)CC3)c2n1 [Example 7, dioxalate]  ≤ 16 µg/mL
 9  COc1ccc2nccc(NC(=O)C3CCN(CC(=O)c4ccc5c(c4)NC(=O)CS5)CC3)c2n1 [Example 11, oxalate]  ≤ 64 µg/mL
10  COc1ccc2nccc(NC(=O)C3CCN(CC(=O)c4ccc5c(c4)NC(=O)CO5)CC3)c2n1.O=C(O)C(=O)O [Example 13]   ≤ 4 µg/mL
11  COc1ccc2nccc(NC(=O)C3CCN(CC(O)c4ccc5c(c4)NC(=O)CO5)CC3)c2n1 (stereo not drawn) [Example 19]  ≤ 16 µg/mL
12  COc1ccc2nccc(NC(=O)C3CCN(CCc4ccc5c(c4)OCCO5)CC3)c2n1 [Example 3, dioxalate]   ≤ 4 µg/mL
13  COc1ccc2nccc(OCC3CCN(CC(O)c4ccc5c(c4)NC(=O)CS5)CC3)c2n1 (stereo not drawn) [Example 17, hydrochloride]  ≤ 16 µg/mL
14  COc1ccc2nccc(NC(=O)C3CCN(CCc4nc5c(F)cccc5[nH]4)CC3)c2n1 [Example 4, dioxalate]   ≤ 4 µg/mL
